# method: Cmax in female Balb/c mouse at 8 mg/kg, ip measured up to 24 hrs by LC-MS/MS analysis
# Format: ADME, organism-based
# conditionsUsed: in vivo

structureNotation	Cmax [ng/mL]
CN(N=O)c1ccc(OCc2ccc([N+](=O)[O-])c(F)c2)cc1	450

----------
# method: AUC (0 to last) in female Balb/c at 8 mg/kg, ip mouse measured up to 24 hrs by LC-MS/MS analysis
# Format: ADME, organism-based
# conditionsUsed: in vivo

structureNotation	AUC(0-t) at 24 h
CN(N=O)c1ccc(OCc2ccc([N+](=O)[O-])c(F)c2)cc1	626 ng·h/mL

Data provenance is ChEMBL document CHEMBL6087446.
